biological target: complex III (Bos taurus, UniProt P00157+P13272); assay: Reduction of cytochrome c by reduced CoQ and analogs catalyzed by complex III; assay type: biochemical; conditions: 10 μM reduced CoQ or analog; 2 μg complex III; 8 μM cytochrome c
// reported nMoles Cytochrome c Reduced/min for each item listed
Could you give me the number in nmol/min? Just the number is fine.

Which nMoles Cytochrome c Reduced/min value is on record for COC1=C(OC)C(=O)C(CC=C(C)C)=C(C)C1=O [Q1, reference compound] ?
12.4

---

molecular target: succinoxidase system of beef heart mitochondria; assay: CoQ activity: restoring succinoxidase activity of pentane-extracted beef heart mitochondria (manometric); type: biochemical; conditions: level required to reinstate approximately 50% of maximum succinoxidase activity; 0.65-0.85 mg PEBHM
// reported Estimated nMoles Required for 50% Activation for each item listed
Could you give me the number in nmol? Just the number is fine.

Some compounds with known Estimated nMoles Required for 50% Activation results, for comparison:
COC1=C(OC)C(=O)C(C/C=C(\C)CC/C=C(\C)CC/C=C(\C)CC/C=C(\C)CC/C=C(\C)CC/C=C(\C)CCC=C(C)C)=C(C)C1=O [CoQ7, reference compound]	24.4
CCCCCC1=C(C)C(=O)C(OC)=C(OC)C1=O	35.1
CCCCCC=CCC=CCCCCCCCC1=C(C)C(=O)C(OC)=C(OC)C1=O	4.7
COC1=C(OC)C(=O)C(C/C=C(\C)CC/C=C(\C)CC/C=C(\C)CCC=C(C)C)=C(C)C1=O [CoQ4, reference compound]	2.0
CCCCCCCCCCCCCCCCCCCCC1=C(C)C(=O)C(OC)=C(OC)C1=O	44.4
CCCCCCC=CCCCCCCCC1=C(C)C(=O)C(OC)=C(OC)C1=O	3.4

Which Estimated nMoles Required for 50% Activation value is on record for CCCCCC=CCC=CCC=CCC=CCCCC1=C(C)C(=O)C(OC)=C(OC)C1=O ?
5.4

Which Estimated nMoles Required for 50% Activation value is on record for CCCCCCCCCCC1=C(C)C(=O)C(OC)=C(OC)C1=O ?
3.6

Which Estimated nMoles Required for 50% Activation value is on record for CCCCCCCCCCCCCCCC1=C(C)C(=O)C(OC)=C(OC)C1=O ?
9.5

Which Estimated nMoles Required for 50% Activation value is on record for CCCCCC=CCC=CCCCCCCCCCC1=C(C)C(=O)C(OC)=C(OC)C1=O ?
5.7

Which Estimated nMoles Required for 50% Activation value is on record for CCCCCCCCC=CCCCCCCCC1=C(C)C(=O)C(OC)=C(OC)C1=O ?
7.1

Which Estimated nMoles Required for 50% Activation value is on record for CCC=CCC=CCC=CCCCCCCCCCC1=C(C)C(=O)C(OC)=C(OC)C1=O ?
4.1

---

test system: succinoxidase system of beef heart mitochondria; assay: CoQ activity: restoring succinoxidase activity of pentane-extracted beef heart mitochondria (manometric); assay type: biochemical; conditions: molar amounts of analog and CoQ4 required to restore the same level of succinoxidase to PEBHM; relative to CoQ4
// reported Relative Effectiveness for each item listed
Could you give me the number in %? Just the number is fine.

Some molecules with known Relative Effectiveness results, for comparison:
CCCCCCCCCCC1=C(C)C(=O)C(OC)=C(OC)C1=O	56
CCCCCC=CCC=CCCCCCCCCCC1=C(C)C(=O)C(OC)=C(OC)C1=O	35

Then there is this molecule:
Which Relative Effectiveness value is on record for CCCCCC=CCC=CCCCCCCCC1=C(C)C(=O)C(OC)=C(OC)C1=O ?
43

---

system: succinoxidase system of beef heart mitochondria; assay: CoQ activity: restoring succinoxidase activity of pentane-extracted beef heart mitochondria (manometric); format: biochemical; set-up: key: activity index relative to CoQ10 standard; conditions: calculated from relative effectiveness; activity in terms of that of CoQ10
# note: exactly 8 is not below, so it is Condition not met; use Condition met for CoQ10 Act. Index strictly under it

Sample answers from the record:
CCCCCC=CCC=CCC=CCC=CCCCC1=C(C)C(=O)C(OC)=C(OC)C1=O	Condition met
CCCCCCCCCCCCCCCC1=C(C)C(=O)C(OC)=C(OC)C1=O	Condition met
CCCCCCC=CCCCCCCCC1=C(C)C(=O)C(OC)=C(OC)C1=O	Condition not met
CCCCCC=CCC=CCCCCCCCCCC1=C(C)C(=O)C(OC)=C(OC)C1=O	Condition met
COC1=C(OC)C(=O)C(C/C=C(\C)CC/C=C(\C)CC/C=C(\C)CC/C=C(\C)CC/C=C(\C)CC/C=C(\C)CC/C=C(\C)CC/C=C(\C)CC/C=C(\C)CCC=C(C)C)=C(C)C1=O [CoQ10, coenzyme Q10, reference compound]	Condition met
CCCCCCCCCCC1=C(C)C(=O)C(OC)=C(OC)C1=O	Condition not met

# TODO verify CoQ10 Act. Index < 8 strictly for this compound: CCCCCC=CCC=CCCCCCCCC1=C(C)C(=O)C(OC)=C(OC)C1=O
Condition not met

# TODO verify CoQ10 Act. Index < 8 strictly for this compound: CCCCCCCCC=CCCCCCCCCCC1=C(C)C(=O)C(OC)=C(OC)C1=O
Condition met

# TODO verify CoQ10 Act. Index < 8 strictly for this compound: COC1=C(OC)C(=O)C(C/C=C(\C)CCCC(C)CCCC(C)CCCC(C)C)=C(C)C1=O (stereo not shown) [H6 CoQ4, hexahydrocoenzyme Q4, reference compound]
Condition met

# TODO verify CoQ10 Act. Index < 8 strictly for this compound: COC1=C(OC)C(=O)C(C/C=C(\C)CC/C=C(\C)CC/C=C(\C)CCC=C(C)C)=C(C)C1=O [CoQ4, reference compound]
Condition not met

---

target: complex III (Bos taurus, UniProt P00157+P13272); experiment: Reduction of cytochrome c by reduced CoQ and analogs catalyzed by complex III; assay type: biochemical; conditions: 10 μM reduced CoQ or analog; 2 μg complex III; 8 μM cytochrome c
// reported nMoles Cytochrome c Reduced/min for each item listed
Could you give me the number in nmol/min? Just the number is fine.

Some compounds with known nMoles Cytochrome c Reduced/min results, for comparison:
CCCCCC1=C(C)C(=O)C(OC)=C(OC)C1=O	14.6
COC1=C(OC)C(=O)C(C/C=C(\C)CCC=C(C)C)=C(C)C1=O [Q2, reference compound]	27.4

Which nMoles Cytochrome c Reduced/min value is on record for CCCCCCCCCCC1=C(C)C(=O)C(OC)=C(OC)C1=O ?
29.0
